experiment: Solubility study; assay type: physicochemical; settings: doubly distilled water, 25 °C, thermodynamic from solid
PROPERTY_MEASURED: solubility at 24 h (µg/mL)
Field: numeric (µg/mL). Do not append units.

-- ask Tell us which solubility at 24 h value is on record for O=C1OC2(c3ccc(O)cc3Oc3cc(O)ccc32)c2ccccc21
-- reply 6.75

###

test: Transport across ARPE-19 monolayer cells; assay type: in vitro ADME; conditions: human
PROPERTY_MEASURED: Papp at 360 min, 100 μmol/L (×10⁻⁶ cm/s)
Field: numeric (×10⁻⁶ cm/s). Do not append units.

-- ask Tell us which Papp at 360 min, 100 μmol/L value is on record for O=C1OC2(c3ccc(O)cc3Oc3cc(O)ccc32)c2ccccc21
-- reply 5.56

All figures here come from paper PMC4629109.
